# targetOrSystem: BACE1 (Homo sapiens, UniProt P56817)
# Construct: endogenous in cells
# Sequence (P56817 46-501): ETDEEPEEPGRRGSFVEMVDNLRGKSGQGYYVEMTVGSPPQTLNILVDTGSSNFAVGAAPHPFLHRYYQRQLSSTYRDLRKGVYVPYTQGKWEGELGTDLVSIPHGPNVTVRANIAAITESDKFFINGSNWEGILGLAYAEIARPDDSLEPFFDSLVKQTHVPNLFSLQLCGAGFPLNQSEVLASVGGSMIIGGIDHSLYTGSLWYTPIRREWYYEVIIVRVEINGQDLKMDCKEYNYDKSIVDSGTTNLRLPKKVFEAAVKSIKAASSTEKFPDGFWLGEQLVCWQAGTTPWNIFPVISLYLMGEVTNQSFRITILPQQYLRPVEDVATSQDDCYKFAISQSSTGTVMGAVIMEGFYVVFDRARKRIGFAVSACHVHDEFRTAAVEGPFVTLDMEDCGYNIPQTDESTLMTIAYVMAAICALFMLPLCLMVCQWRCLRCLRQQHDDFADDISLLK
# assayOverview: Cellular BACE1 Inhibition Assay (in vitro cellular Amyloidβ 1-40 production, HTRF immunoassay)
# measurementParameters: inhibition of Amyloidβ 1-40 production; HEK-293 cells stably transfected with wild type APP695; 48 hours incubation; single assay or mean of multiple assays
parameter: IC50 (nM)
Lab book: enter the figure in nM, no units written.

# get_value(readout='IC50', item= "CN1C(=O)[C@]2(N=C1N)c1cc(-c3cncc(Cl)c3)ccc1O[C@H]1CCCO[C@@H]12" ) 1.5

And CN1C(=O)C2(N=C1N)c1cc(-c3cccnc3F)ccc1OC1CCC(F)(F)CC12 (stereo not shown) ? 41.4

And CN1C(=O)[C@]2(N=C1N)c1cc(-c3cncc(Cl)c3)ccc1O[C@]1(C)CCCO[C@H]12 (relative stereo) ? 2.3

And CN1C(=O)C2(N=C1N)c1cc(-c3cccc(OC(F)F)c3)ccc1OC1CC(F)(F)CCC12 (stereo not shown) ? 221

###

# targetOrSystem: BACE1 (Homo sapiens, UniProt P56817)
# Construct: endogenous in cells
# assayOverview: Cellular BACE1 Inhibition Assay (in vitro cellular Amyloidβ 1-40 production, HTRF immunoassay)
# measurementParameters: inhibition of Amyloidβ 1-40 production; HEK-293 cells stably transfected with wild type APP695; 48 hours incubation; single assay or mean of multiple assays
parameter: IC50
Answer with the value and then the unit.

# get_value(readout='IC50', item= CN1C(=O)C2(N=C1N)c1cc(-c3cncnc3)ccc1OC1CC(O)CCC12 (stereo not drawn) ) 36.2 nM

And CN1C(=O)C2(N=C1N)c1cc(-c3cccnc3F)ccc1O[C@H]1CCCC[C@H]12 (relative stereo) ? 48.3 nM

And C[C@H]1OCCC2Oc3ccc(-c4cncc(Cl)c4)cc3[C@]3(N=C(N)N(C)C3=O)[C@@H]21 (mixture of isomers) ? 13.2 nM

And CN1C(=O)C2(N=C1N)c1cc(-c3cncnc3)ccc1OC1CC(F)(F)CCC12 (stereo not drawn) ? 125 nM

And CN1CC[C@@H]2Oc3ccc(-c4cc(F)cc(Cl)c4)cc3C3(N=C(N)N(C)C3=O)[C@@H]2C1 (stereo partly drawn) ? 1670 nM

And CN1C(=O)[C@]2(N=C1N)c1cc(-c3cccnc3F)ccc1O[C@@]1(C)CCCO[C@H]12 (racemic) ? 18.3 nM

And CCOC1CCC2C(C1)Oc1ccc(-c3cc(F)cc(Cl)c3)cc1C21N=C(N)N(C)C1=O (stereo not drawn) ? 51.2 nM

And CN1C(=O)C2(N=C1N)c1cc(-c3cc(F)cc(Cl)c3)ccc1OC1CC3(CCC12)OCCO3 (stereo not drawn) ? 168 nM

And CN1C(=O)C2(N=C1N)c1cc(-c3cncc(Cl)c3)ccc1OC1CC(O)CCC12 (stereo not drawn) ? 1.3 nM

###

Provide the recorded IC50 for the entries that follow.
# targetOrSystem: BACE1 (Homo sapiens)
# Construct: endogenous in cells
# assayOverview: Cellular BACE1 Inhibition Assay (in vitro cellular Amyloidβ 1-40 production, HTRF immunoassay)
# measurementParameters: inhibition of Amyloidβ 1-40 production; HEK-293 cells stably transfected with wild type APP695; 48 hours incubation; single assay or mean of multiple assays
Lab book: enter the figure in nM, no units written.

# get_value(readout='IC50', item= CN1C(=O)C2(N=C1N)c1cc(-c3cccnc3F)ccc1O[C@H]1CC(O)CC[C@@H]12 (some centres unmarked) ) 3.9

And CN1C(=O)C2(N=C1N)c1cc(-c3cc(F)cc(Cl)c3)ccc1OC1CC(C)(O)CCC12 (centres unmarked) ? 35.9

And CN1C(=O)C2(N=C1N)c1cc(-c3cccc(Cl)c3)ccc1OC1CC(F)(F)CCC12 (centres unmarked) ? 271

And CN1C(=O)C2(N=C1N)c1cc(-c3cncc(Cl)c3)ccc1O[C@H]1CCCC[C@@H]12 (relative stereo) ? 8.6

And CN1C(=O)C2(N=C1N)c1cc(-c3cc(F)cc(Cl)c3)ccc1OC1CC(=O)CCC12 (centres unmarked) ? 5.5

And CN1C(=O)C2(N=C1N)c1cc(-c3cccnc3F)ccc1OC1CC(F)(F)CCC12 (centres unmarked) ? 21.4

And CN1C(=O)C2(N=C1N)c1cc(-c3cncc(Cl)c3)ccc1OC1CC(F)(F)CCC12 (centres unmarked) ? 74.1

And CN1C(=O)[C@]2(N=C1N)c1cc(-c3cccnc3F)ccc1O[C@H]1CCOCC12F (some centres unmarked) ? 241
